System: Tyrosine-protein kinase JAK1 (Homo sapiens, UniProt P23458) | Read-out: pIC50 | Origin: multiple publications
Sequence (P23458 whole entry): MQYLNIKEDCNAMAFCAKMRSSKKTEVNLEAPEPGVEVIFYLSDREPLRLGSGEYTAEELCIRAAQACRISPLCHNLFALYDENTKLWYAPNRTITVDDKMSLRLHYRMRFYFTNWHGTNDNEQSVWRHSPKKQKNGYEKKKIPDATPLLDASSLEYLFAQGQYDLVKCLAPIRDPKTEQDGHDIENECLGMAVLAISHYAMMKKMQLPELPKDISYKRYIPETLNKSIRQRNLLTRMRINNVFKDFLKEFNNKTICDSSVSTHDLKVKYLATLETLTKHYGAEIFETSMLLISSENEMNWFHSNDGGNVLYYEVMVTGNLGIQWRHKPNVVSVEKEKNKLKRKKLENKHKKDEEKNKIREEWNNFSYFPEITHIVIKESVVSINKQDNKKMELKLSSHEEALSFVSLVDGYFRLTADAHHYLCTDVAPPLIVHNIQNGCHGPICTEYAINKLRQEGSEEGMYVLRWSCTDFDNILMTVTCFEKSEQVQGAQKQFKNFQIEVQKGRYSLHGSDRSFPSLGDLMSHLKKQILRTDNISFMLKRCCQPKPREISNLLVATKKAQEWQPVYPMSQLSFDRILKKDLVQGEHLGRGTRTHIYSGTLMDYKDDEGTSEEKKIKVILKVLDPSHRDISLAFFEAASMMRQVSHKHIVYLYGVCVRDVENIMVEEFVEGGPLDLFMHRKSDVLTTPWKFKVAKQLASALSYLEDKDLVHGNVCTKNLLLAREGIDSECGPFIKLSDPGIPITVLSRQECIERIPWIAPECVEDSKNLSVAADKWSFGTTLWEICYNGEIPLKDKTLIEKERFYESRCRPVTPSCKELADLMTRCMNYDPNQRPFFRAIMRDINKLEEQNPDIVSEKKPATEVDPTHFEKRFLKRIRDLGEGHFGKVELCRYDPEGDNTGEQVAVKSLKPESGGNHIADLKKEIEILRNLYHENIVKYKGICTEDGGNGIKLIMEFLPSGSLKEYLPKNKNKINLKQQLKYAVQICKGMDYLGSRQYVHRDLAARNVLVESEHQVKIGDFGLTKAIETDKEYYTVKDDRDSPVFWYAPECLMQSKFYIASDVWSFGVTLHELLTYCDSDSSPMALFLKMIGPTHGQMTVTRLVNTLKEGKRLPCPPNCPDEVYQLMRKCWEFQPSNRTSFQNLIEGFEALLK
pIC50: −log10 of the molar value.
Hi, to clarify the labels: fulfilled covers pIC50 from 7 upward, not fulfilled covers anything below 7.

A selection of reference data follows.
INSERT INTO assay_data (compound, answer_label) VALUES
  ('CC(C)CNc1c(C(N)=O)cnn2cc(-c3ccccc3)cc12', 'fulfilled'),
  ('CN(c1ncnc2[nH]ccc12)[C@H]1CN(S(=O)(=O)c2cccc(F)c2)CC12CC2', 'fulfilled'),
  ('C[C@@]1(F)CCC[C@@H]1Nc1c(C(N)=O)cnn2cccc12', 'not fulfilled');

Enquiry: Hello, I need to know if N#C/C=C/c1ccc(-c2nc3cnc4[nH]ccc4c3n2C2CCCCC2)o1 has measured pIC50 not below 7. Thanks!
Return: fulfilled

Enquiry: Hello, I need to know if C[C@H](Nc1nc(Nc2cn(C)cn2)c2ccn(C3CC3)c2n1)c1ncc(F)cn1 has measured pIC50 not below 7. Thanks!
Return: fulfilled
